System: CCRF-CEM
Assay: NCI tumour cell line growth inhibition, 48 h
The source made the active and inactive calls. Rule as the data show it: active = GI50 up to about 1.1 µM and inactive = higher.
Below, each entry is listed alongside its reported GI50.

Some solved cases for reference:
Asked: Reported GI50 for CC(O)CCNC(=O)Nc1c(C(F)(F)F)cc(-c2ccccc2)[nH]c1=O (stereo not drawn) : what is it?
Given back: > 100 µM (inactive)

Asked: Would you kindly repeat that for O=C(Cc1nccc2c1[nH]c1ccccc12)OC1C#CCSCC#C/C=C\1 (stereo not drawn) ?
Given back: 38.8 µM (inactive)

--- query ---
Asked: Reported GI50 for COc1ccc(C(=O)CC(c2ccccc2)[C@H]2C(c3ccc(OC)cc3)=Nc3c(nc(SC)n(C)c3=O)NC2c2ccccc2)cc1 (stereo partly drawn) : what is it?
Given back: > 100 µM (inactive)

###

Test system: U-251
Test: NCI tumour cell line growth inhibition, 48 h
Calls of active or inactive are those of the source. Rule as the data show it: active = GI50 up to about 1.1 µM and inactive = higher.
Below, each entry is listed alongside its reported GI50.

Asked: Reported GI50 for Cn1c(=O)c(-c2ccccc2)c(N=[N+]=[N-])c2ccccc21 : what is it?
Given back: 34.8 µM (inactive)

Asked: Would you kindly repeat that for O=c1c2c(no[n+]2[O-])c2ccccc2n1-c1ccccc1 ?
Given back: 5.19 µM (inactive)

Asked: Would you kindly repeat that for C=CC1(c2ccc(-c3ccccc3)cc2)OCCO1 ?
Given back: 54.8 µM (inactive)

Next:
Asked: Reported GI50 for Cc1cc2c(c3nocc13)C(=O)c1ccccc1C2=O : what is it?
Given back: > 100 µM (inactive)

###

Test system: SNB-78
Assay: NCI tumour cell line growth inhibition, 48 h
Active and inactive are the calls of the source. Cut-off read from the data, not from the text of the source: active = GI50 up to about 1.1 µM and inactive = higher.
Outcome (select one): TRUE = active, FALSE = inactive

Asked: What did this assay record as the result for C=C1C(C)C2C(Cc3ccccc3)NC(=O)C23C(OC(C)=O)/C=C/C(C)(O)CC(C)C/C=C/C3C1O (stereo not drawn) ?
Given back: TRUE

Consider the record given below.
Asked: What did this assay record as the result for COc1cc2c(c3c1c(=O)c1ccccc1n3C)C=CC(C)(C)O2 [ACRONINE] ?
Given back: FALSE

###

System: HCT-15
Below, each entry is listed alongside its reported GI50.

Some solved cases for reference:
Asked: Reported GI50 for COc1ccc2c(c1)-c1[nH]c3ccccc3c1CC2 : what is it?
Given back: 14.7 µM

Asked: Would you kindly repeat that for Cn1c(=O)nc2n(-c3ccc(Cl)cc3)c(-c3ccccc3)c(-c3ccccc3)nc-2c1=O ?
Given back: 22.5 µM

Next:
Asked: Reported GI50 for COC(=O)C(=O)C(C#N)c1c(Cl)cccc1Cl (stereo not drawn) : what is it?
Given back: > 100 µM

###

Test system: HL-60
Test: NCI tumour cell line growth inhibition, 48 h
Calls of active or inactive are those of the source. Rule as the data show it: active = GI50 up to about 1.1 µM and inactive = higher.
Outcome (select one): True = active, False = inactive

Illustrative cases are given below, each with its answer.
Asked: What did this assay record as the result for O=C(O)CCC(c1ccccc1)(c1ccccc1)c1ccccc1 ?
Given back: False

Asked: Would you kindly repeat that for CCOC(=O)/C=C(/C(=O)OCC)n1ccc(=O)n(/C(=C/C(=O)OCC)C(=O)OCC)c1=O ?
Given back: True

Asked: Would you kindly repeat that for c1ccc(C2=NN=C3C(c4ccccc4)=Nc4ccccc4N3C2)cc1 ?
Given back: False

Asked: Would you kindly repeat that for COc1ccccc1[C@@H]1CCC2CC[C@@H](c3ccccc3OC)[N+]21Cc1ccccc1 (stereo partly drawn) ?
Given back: True

Asked: Would you kindly repeat that for COc1cc([C@H]2c3cc4c(cc3[C@H](NCc3ccc([N+](=O)[O-])cc3)C3COC(=O)[C@H]32)OCO4)cc(OC)c1O (stereo partly drawn) ?
Given back: True

Next:
Asked: What did this assay record as the result for CCCCOC(=O)NC(=O)c1cn(C2CCCCC2)c(=O)[nH]c1=O ?
Given back: False

Asked: Would you kindly repeat that for CC(O)CCNC(=O)Nc1c(C(F)(F)F)cc(-c2ccccc2)[nH]c1=O (stereo not drawn) ?
Given back: False

Asked: Would you kindly repeat that for COc1ccc2oc3c(C)cc4c(OC)nnc(OC)c4c3c2c1 ?
Given back: False

Asked: Would you kindly repeat that for Brc1ccc(CCNCCN2CCCCC2)cc1 ?
Given back: False

Asked: Would you kindly repeat that for N=C(N)NCC[C@H](NC(=O)OCCCCCn1ccc(=O)[nH]c1=O)C(=O)O ?
Given back: False

Asked: Would you kindly repeat that for CC1CSc2nc3nc(S)nc-3c(O)n2C1 (stereo not drawn) ?
Given back: False

Asked: Would you kindly repeat that for C=C(C)[C@@]1(O[Si](C)(C)C)CCCC[C@@H]1CC(Sc1ccccc1)Sc1ccccc1 ?
Given back: False

Each recorded value in this set is attributed to ChEMBL document CHEMBL1201862.
